Where do these numbers come from? They come from patent US5324648A.

# percentage of inhibition annotations
Biological target: porcine pancreatic elastase (PPE) (Sus scrofa, UniProt P00772)
Construct: from tissue; host or cells: porcine pancreas (from the name)
Sequence (P00772 27-266): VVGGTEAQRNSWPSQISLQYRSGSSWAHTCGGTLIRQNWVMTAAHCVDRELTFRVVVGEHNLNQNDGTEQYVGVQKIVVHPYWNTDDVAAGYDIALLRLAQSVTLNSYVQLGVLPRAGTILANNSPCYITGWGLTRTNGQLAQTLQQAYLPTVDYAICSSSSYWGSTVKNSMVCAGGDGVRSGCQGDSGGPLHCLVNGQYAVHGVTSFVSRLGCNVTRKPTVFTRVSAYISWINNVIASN
Assay: Inactivation of porcine pancreatic elastase (PPE)
Assay type: biochemical
Conditions: Table X; after 20 min incubation
RESULT_TYPE: percentage of inhibition (%)

CC(C)(C)OC(=O)N[C@H](Cc1ccccc1)C(=O)Nc1ccc2c(Cl)c(OCCSC(=N)N)oc(=O)c2c1: 12
C[C@@H](NC(=O)Nc1ccc2c(Cl)c(OCCSC(=N)N)oc(=O)c2c1)c1ccccc1: 9
C[C@H](NC(=O)Nc1ccc2c(Cl)c(OCCSC(=N)N)oc(=O)c2c1)c1ccccc1: 21
N=C(N)SCCCOc1oc(=O)c2cc(NC(=O)NCc3ccccc3)ccc2c1Cl: 9

====

Molecular target: mouse granzyme A (Mus musculus)
Construct: mouse cytotoxic lymphocyte granzyme A; endogenous in cells; host or cells: mouse cytotoxic lymphocytes
Sequence (P11032 29-260): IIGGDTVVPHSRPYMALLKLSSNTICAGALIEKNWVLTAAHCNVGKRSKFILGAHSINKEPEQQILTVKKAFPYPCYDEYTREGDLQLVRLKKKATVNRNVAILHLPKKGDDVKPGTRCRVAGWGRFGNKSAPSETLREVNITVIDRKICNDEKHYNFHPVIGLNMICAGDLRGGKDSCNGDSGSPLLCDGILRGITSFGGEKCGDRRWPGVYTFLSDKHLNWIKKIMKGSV
Experiment: Inactivation rate of mouse granzyme A
Type: biochemical
Details: Table VII; pH 7.5, 25° C; [I] 0.4 to 45 μM; read-out: kobs/[I]
RESULT_TYPE: kinact/KI (M⁻¹ s⁻¹)

N=C(N)Nc1ccc2c(Cl)c(OCCc3ccccc3)oc(=O)c2c1: 6400
N=C(N)SCCCOc1oc(=O)c2cc(N)ccc2c1Cl: 3000
O=c1oc(Cl)c(Cl)c2ccccc12 [3,4-dichloroisocoumarin, reference compound]: 50
N=C(N)SCCCOc1oc(=O)c2ccccc2c1Cl: 17500
CCOc1oc(=O)c2cc(NC(=N)N)ccc2c1Cl [7-guanidino-3-ethoxy-4-chloroisocoumarin, 7-guanidino-4-chloro-3-ethoxyisocoumarin]: 26200
NCCCOc1oc(=O)c2ccccc2c1Cl [3-(3-aminopropoxy)-4-chloroisocoumarin]: 770
COc1oc(=O)c2cc(NC(=N)N)ccc2c1Cl: 15000

====

System: pig plasma
Assay: Prothrombin time (PT), pig plasma
Settings: [I] 32 μM
Entries and their PT
RESULT_TYPE: PT (s)

C[C@@H](NC(=O)Nc1ccc2c(Cl)c(OCCSC(=N)N)oc(=O)c2c1)c1ccccc1 [R-C6 H5 (CH3)CHNHCONH-CiTEtOIC]: 26.2
N=C(N)SCCOc1oc(=O)c2cc(NC(=O)NCc3ccccc3)ccc2c1Cl [PhCH2 NHCONH-CiTEtOIC]: 31.1
N=C(N)SCCOc1oc(=O)c2cc(NC(=O)Nc3ccccc3)ccc2c1Cl [PhNHCONH-CiTEtOIC]: 58.3
C[C@H](NC(=O)Nc1ccc2c(Cl)c(OCCSC(=N)N)oc(=O)c2c1)c1ccccc1 [S-C6 H5 (CH3)CHNHCONH-CiTEtOIC]: 30.0

====

In this section we review reported kinact/KI values for a set of compounds.
Target: human plasmin (Homo sapiens, UniProt P00747)
Construct: human plasmin; from tissue; host or cells: human plasma
Sequence (P00747 581-810 limits assumed): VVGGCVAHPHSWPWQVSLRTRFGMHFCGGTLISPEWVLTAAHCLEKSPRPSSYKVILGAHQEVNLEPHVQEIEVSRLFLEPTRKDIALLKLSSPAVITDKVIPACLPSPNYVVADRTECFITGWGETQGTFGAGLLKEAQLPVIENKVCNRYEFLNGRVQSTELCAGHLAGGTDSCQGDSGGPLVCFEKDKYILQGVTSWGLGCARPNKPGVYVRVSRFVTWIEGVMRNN
Sequence (P00747 97-580 partner limits assumed): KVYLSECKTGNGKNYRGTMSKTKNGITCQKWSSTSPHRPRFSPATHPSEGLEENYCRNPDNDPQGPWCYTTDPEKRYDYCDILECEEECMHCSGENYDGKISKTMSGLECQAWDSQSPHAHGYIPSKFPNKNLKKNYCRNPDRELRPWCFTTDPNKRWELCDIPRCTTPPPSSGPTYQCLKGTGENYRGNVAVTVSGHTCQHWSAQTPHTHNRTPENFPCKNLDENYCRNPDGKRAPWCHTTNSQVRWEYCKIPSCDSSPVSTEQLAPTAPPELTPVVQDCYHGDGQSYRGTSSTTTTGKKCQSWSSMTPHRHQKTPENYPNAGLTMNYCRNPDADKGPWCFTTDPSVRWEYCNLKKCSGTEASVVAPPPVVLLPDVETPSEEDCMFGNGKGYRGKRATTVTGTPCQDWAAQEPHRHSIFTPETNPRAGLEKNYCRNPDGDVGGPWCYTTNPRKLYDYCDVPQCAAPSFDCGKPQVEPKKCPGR
Assay: Inactivation rate of human plasmin
Format: biochemical
Conditions: Table VI; pH 7.5, 25° C; [I] 4 to 330 μM; read-out: kobs/[I]
Where a name gives a salt, the structure may show the parent alone.
RESULT_TYPE: kinact/KI (M⁻¹ s⁻¹)

N=C(N)SCCCOc1oc(=O)c2cc(N)ccc2c1Cl: 4340
NCCCOc1cc2ccccc2c(=O)o1: 36
NCCCOc1oc(=O)c2ccccc2c1Cl: 770
COc1oc(=O)c2cc(NC(=O)CN)ccc2c1Cl: 1470
N=C(N)Nc1ccc2c(Cl)c(OCCc3ccccc3)oc(=O)c2c1: 4140
COc1oc(=O)c2cc(NC(=O)[C@H](C)N)ccc2c1Cl [Hydrochloride]: 31
COc1cc2ccc(NC(=N)N)cc2c(=O)o1: 320
COc1oc(=O)c2cc(NC(=N)N)ccc2c1Cl: 3500
CCOc1oc(=O)c2cc(NC(=N)N)ccc2c1Cl: 12300
